Hello, the source for this data is ChEMBL document CHEMBL3244198, in case you need it.

tested on: Streptococcus pneumoniae; assay: Antibacterial activity against Streptococcus pneumoniae 9585 by two-fold serial dilution technique; format: functional
measure: MIC (mg/L)

compound-structure: CC1(C)S[C@@H]2[C@H](N3C(=O)[C@@H](c4ccccc4)NC3(C)C)C(=O)N2[C@H]1C(=O)O
measure: MIC
measured-value: 0.004
//
compound-structure: CC1(C)N=C(c2ccccc2)C(=O)N1[C@@H]1C(=O)N2[C@@H]1[S@+]([O-])C(C)(C)[C@@H]2C(=O)O
measure: MIC
measured-value: 1
//
compound-structure: CC1(C)N[C@H](c2ccccc2)C(=O)N1[C@@H]1C(=O)N2[C@@H]1[S@@+]([O-])C(C)(C)[C@@H]2C(=O)O
measure: MIC
measured-value: 0.5
//
compound-structure: CC1(C)N[C@H](c2ccccc2)C(=O)N1[C@@H]1C(=O)N2[C@@H]1[S@+]([O-])C(C)(C)[C@@H]2C(=O)O
measure: MIC
measured-value: 0.13

---

system: Staphylococcus aureus; assay: Antibacterial activity against Staphylococcus aureus 9537 by two-fold serial dilution technique; assay type: functional
measure: MIC (µg/mL)

compound-structure: CC1(C)N[C@H](c2ccccc2)C(=O)N1[C@@H]1C(=O)N2[C@@H]1[S@+]([O-])C(C)(C)[C@@H]2C(=O)O
assay-system: Staphylococcus aureus
measure: MIC
operator-symbol: =
measured-value: 1

compound-structure: CC1(C)N[C@H](c2ccccc2)C(=O)N1[C@@H]1C(=O)N2[C@@H]1[S@@+]([O-])C(C)(C)[C@@H]2C(=O)O
assay-system: Staphylococcus aureus
measure: MIC
operator-symbol: =
measured-value: 4

compound-structure: CC1(C)N=C(c2ccccc2)C(=O)N1[C@@H]1C(=O)N2[C@@H]1[S@+]([O-])C(C)(C)[C@@H]2C(=O)O
assay-system: Staphylococcus aureus
measure: MIC
operator-symbol: >
measured-value: 8

compound-structure: CC1(C)S[C@@H]2[C@H](N3C(=O)[C@@H](c4ccccc4)NC3(C)C)C(=O)N2[C@H]1C(=O)O
assay-system: Staphylococcus aureus
measure: MIC
operator-symbol: =
measured-value: 0.016
